# Tested on: Alopecurus myosuroides (ALOMY)
# Assay protocol: Glasshouse herbicide test, pre-emergence
# Format: in vivo
# Run parameters: 1000 g/h, evaluated after 13 days, five point scale
For each entry below, report its percentage damage caused to the plant, ALOMY, PRE Application value.

Summary for this compound, `CCc1nnc(NC(=O)c2ccc(C(F)(F)F)cc2S(C)(=O)=O)n1C` : percentage damage caused to the plant, ALOMY, PRE Application is 1 (1=0-19%)

Kindly note the recorded percentage damage caused to the plant, ALOMY, PRE Application for `CCn1cnnc1NC(=O)c1ccc(S(C)(=O)=O)c(COCC(F)(F)F)c1Cl` , which is 5 (5=80-100%)

Quick note, percentage damage caused to the plant, ALOMY, PRE Application for `Cc1ccc(C(F)(F)F)c(C(=O)Nc2nncn2C)c1` landed at 1 (1=0-19%)

The compound listed as `CCc1nnc(NC(=O)c2ccc(S(C)(=O)=O)c(COCC(F)(F)F)c2Cl)n1C` shows percentage damage caused to the plant, ALOMY, PRE Application equal to 1 (1=0-19%)

# compound `Cn1cnnc1NC(=O)c1cc(F)c(F)cc1[N+](=O)[O-]` ; its percentage damage caused to the plant, ALOMY, PRE Application = 1 (1=0-19%)

Value of percentage damage caused to the plant, ALOMY, PRE Application reported for the compound `CCn1cnnc1NC(=O)c1ccc(C(F)(F)F)cc1S(C)(=O)=O` is 1 (1=0-19%)

Query `Cc1ccc([N+](=O)[O-])c(C(=O)Nc2nncn2C)c1` yields percentage damage caused to the plant, ALOMY, PRE Application of 1 (1=0-19%)

Entry `Cc1nnc(NC(=O)c2ccc(C(F)(F)F)cc2S(C)(=O)=O)n1C` — recorded percentage damage caused to the plant, ALOMY, PRE Application = 1 (1=0-19%)

Note to self: percentage damage caused to the plant, ALOMY, PRE Application recorded for `CCn1c(C)nnc1NC(=O)c1ccc(S(C)(=O)=O)c(COCC(F)(F)F)c1Cl` was 1 (1=0-19%)

percentage damage caused to the plant, ALOMY, PRE Application reported for this compound `Cn1cnnc1NC(=O)c1ccc(C(F)(F)F)cc1S(C)(=O)=O` : 2 (2=20-39%)
